The measurements presented in this section are drawn from patent US20250002507A1.

target-system: Human M4 (Homo sapiens, UniProt P08173)
Construct: expressed in transfected cells
Sequence (P08173 1-479): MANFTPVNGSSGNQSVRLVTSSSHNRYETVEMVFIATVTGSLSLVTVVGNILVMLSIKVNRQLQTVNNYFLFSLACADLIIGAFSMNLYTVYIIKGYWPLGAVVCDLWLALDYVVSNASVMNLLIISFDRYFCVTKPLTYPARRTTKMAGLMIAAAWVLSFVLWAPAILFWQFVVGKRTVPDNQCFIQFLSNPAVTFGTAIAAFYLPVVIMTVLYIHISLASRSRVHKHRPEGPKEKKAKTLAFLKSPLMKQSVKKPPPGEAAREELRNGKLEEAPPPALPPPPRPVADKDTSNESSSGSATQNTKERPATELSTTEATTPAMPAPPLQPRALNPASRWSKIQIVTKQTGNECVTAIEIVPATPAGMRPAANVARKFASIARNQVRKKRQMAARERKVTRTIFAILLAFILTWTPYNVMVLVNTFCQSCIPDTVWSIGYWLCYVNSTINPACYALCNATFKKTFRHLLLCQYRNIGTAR
method-notes: mAChR M4 cell-based functional assay (calcium flux, potentiation of EC20 acetylcholine response), hM4-Gqi5 CHO-K1 cells
particulars: CHO-K1; % ACh maximum at 30 μM; human M4; read-out: Emax
measured-quantity: Emax at 30 µM (%)

- molecule: "Cc1cc2nncn2nc1N1CCc2ncc(-c3cc(-c4ccccc4)no3)cc2C1 [Compound 133]"
  readout-value: 68
- molecule: "Cc1c(N2CCc3ncc(Nc4c(F)ccc(Cl)c4F)cc3C2)nn2cnnc2c1C [Compound 29]"
  readout-value: 87
- molecule: "Cc1c(N2CCc3ncc(-c4ccnn4C)cc3C2)nn2cnnc2c1C [Compound 137]"
  readout-value: 99
- molecule: "Cc1c(N2CCc3ncc(C(=O)NCC4CCCOC4)cc3C2)nn2cnnc2c1C (stereo not drawn) [Compound 116]"
  readout-value: 75
- molecule: "Cc1c(N2CCc3ncc(-c4cnn(C5CCNCC5)c4)cc3C2)nn2cnnc2c1C [Compound 148]"
  readout-value: 106
- molecule: "Cc1c(N2CCc3ncc(Nc4cc(F)cc(F)c4F)cc3C2)nn2cnnc2c1C [Compound 30]"
  readout-value: 94
